Biological target: Gal4DBD/AaEcR (DEF) (Aedes aegypti, UniProt P49880)
Construct: The wildtype D, E, and F domains from mosquito Aedes aegypti EcR; expressed in transfected cells; host or cells: 3T3 cells
Sequence (P28704 286-520 A311G/G315S/G445S/I449V): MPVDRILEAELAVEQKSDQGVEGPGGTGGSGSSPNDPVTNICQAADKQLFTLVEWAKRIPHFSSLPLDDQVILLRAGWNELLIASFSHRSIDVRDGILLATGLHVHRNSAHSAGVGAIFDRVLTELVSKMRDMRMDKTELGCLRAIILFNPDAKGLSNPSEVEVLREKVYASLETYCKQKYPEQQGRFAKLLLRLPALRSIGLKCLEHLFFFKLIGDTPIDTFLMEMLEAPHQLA
Sequence (P49880 405-776): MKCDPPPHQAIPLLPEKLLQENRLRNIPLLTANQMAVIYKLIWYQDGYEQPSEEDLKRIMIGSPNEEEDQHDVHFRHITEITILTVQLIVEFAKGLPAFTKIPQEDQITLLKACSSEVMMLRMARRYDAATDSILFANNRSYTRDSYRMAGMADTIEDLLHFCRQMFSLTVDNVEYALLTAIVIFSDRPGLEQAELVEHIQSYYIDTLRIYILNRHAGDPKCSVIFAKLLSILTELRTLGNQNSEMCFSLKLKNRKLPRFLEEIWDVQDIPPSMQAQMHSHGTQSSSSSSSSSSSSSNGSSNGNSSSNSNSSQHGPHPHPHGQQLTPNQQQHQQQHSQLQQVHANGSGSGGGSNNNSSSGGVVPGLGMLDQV
Experiment: cell-based
Type: cell-based
Conditions: 33 μM; 3T3 cells; 48 h; average of two wells
Each item that follows carries a reported Fold Induction Average, AA_3T3V1 Assay 33 μM.
Quick reminder: number only, in fold, skip the unit.

{"columns": ["Compound", "Assay Target", "Unit Annotation", "Observed"],
 "data": [
  ["Cc1ccc(C(=O)N2c3ccc(F)cc3[C@@H](Nc3ccc(F)cc3)C[C@@H]2C)cc1 (relative stereo)", "Gal4DBD/AaEcR (DEF) (Aedes aegypti, UniProt P49880)", "fold", 229],
  ["COc1ccc(C=CC(=O)N2c3ccccc3C(Nc3ccccc3)CC2C)cc1 (stereo not shown)", "Gal4DBD/AaEcR (DEF) (Aedes aegypti, UniProt P49880)", "fold", 126],
  ["CCCc1ccc(C(=O)N2c3c(C)cccc3C(Nc3ccccc3C)CC2C)cc1 (stereo not shown)", "Gal4DBD/AaEcR (DEF) (Aedes aegypti, UniProt P49880)", "fold", 1],
  ["CC1CC(Nc2ccccc2)c2ccccc2N1C(=O)c1ccc(Cl)c(Cl)c1 (stereo not shown)", "Gal4DBD/AaEcR (DEF) (Aedes aegypti, UniProt P49880)", "fold", 1],
  ["CC1CC(Nc2ccccc2)c2ccccc2N1C(=O)c1ccc(Cl)c(F)c1 (stereo not shown)", "Gal4DBD/AaEcR (DEF) (Aedes aegypti, UniProt P49880)", "fold", 369]
]}

INPUT: Give me measured Fold Induction Average, AA_3T3V1 Assay 33 μM, please, for this compound: CC1CC(Nc2ccccc2)c2ccccc2N1C(=O)c1cccc(F)c1 (stereo not shown)
OUTPUT: 147

INPUT: Give me measured Fold Induction Average, AA_3T3V1 Assay 33 μM, please, for this compound: CCCC(=O)N1c2ccccc2C(N(C(=O)c2ccccc2)c2ccc(F)cc2)CC1C (stereo not shown)
OUTPUT: 1

INPUT: Give me measured Fold Induction Average, AA_3T3V1 Assay 33 μM, please, for this compound: CCc1c(OC)cccc1C(=O)N1c2ccc(F)cc2C(Nc2ccc(F)cc2)CC1C (stereo not shown)
OUTPUT: 1256

INPUT: Give me measured Fold Induction Average, AA_3T3V1 Assay 33 μM, please, for this compound: Cc1ccc(NC2CC(C)N(C(=O)c3ccnc(Cl)c3)c3ccc(C)cc32)cc1 (stereo not shown)
OUTPUT: 527

INPUT: Give me measured Fold Induction Average, AA_3T3V1 Assay 33 μM, please, for this compound: CCc1c(OC)cccc1C(=O)N1c2ccc(C)cc2C(Nc2ccc(C)cc2)CC1C (stereo not shown)
OUTPUT: 194

###

Target: Bombyx mori EcR (VP16-BmEcR, CVBE) (Bombyx mori, UniProt P49881)
Construct: expressed in transfected cells
Sequence (P49881 86-606): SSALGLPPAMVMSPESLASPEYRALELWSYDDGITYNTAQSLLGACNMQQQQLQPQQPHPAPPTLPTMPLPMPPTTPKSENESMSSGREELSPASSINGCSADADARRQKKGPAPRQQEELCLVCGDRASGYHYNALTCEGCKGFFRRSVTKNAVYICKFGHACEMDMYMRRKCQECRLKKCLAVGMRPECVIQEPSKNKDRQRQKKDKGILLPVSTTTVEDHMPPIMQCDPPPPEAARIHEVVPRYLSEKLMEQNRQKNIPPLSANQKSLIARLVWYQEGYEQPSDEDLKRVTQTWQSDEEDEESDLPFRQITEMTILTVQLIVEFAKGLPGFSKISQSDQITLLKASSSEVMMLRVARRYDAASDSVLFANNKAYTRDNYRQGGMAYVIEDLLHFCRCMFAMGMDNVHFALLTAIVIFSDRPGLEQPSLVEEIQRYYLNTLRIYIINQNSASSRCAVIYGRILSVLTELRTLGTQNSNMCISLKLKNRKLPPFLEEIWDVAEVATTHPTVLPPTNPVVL
Test: Z3 assay (HEK-293 clone Z3 with CVBE and 6x EcRE LacZ, β-galactosidase reporter)
Assay type: cell-based
Conditions: 48 h, average of two wells
Method: Dr. F. Gage provided a population of stably transformed cells containing CVBE and 6× EcRE as described in (Suhr et. al. 1998). […] Dilution cloning was used to isolate individual clones. […] Individual clones were evaluated based on their response in the presence and absence of test ligands. […] Reporter gene expression was evaluated 48 hours after treatment of cells, β-galactosidase activity was measured using Gal Screen™ bioluminescent reporter gene assay system from Tropix (GSY1000). […]
Measure Name: Fold Induction Average, Z3V1 Assay 33 μM (fold)
Quick reminder: number only, in fold, skip the unit.

Sample answers from the record:
{"columns": ["Compound", "Fold Induction Average, Z3V1 Assay 33 μM [fold]"],
 "data": [
  ["CC1CC(Nc2ccccc2)c2ccccc2N1C(=O)c1cccc([N+](=O)[O-])c1 (centres unmarked)", 18],
  ["CC1CC(Nc2ccccc2)c2ccccc2N1C(=O)CCC1CCCCC1 (centres unmarked)", 1],
  ["Cc1ccc(C(=O)N2c3ccc(F)cc3[C@H](Nc3ccc(F)cc3)C[C@@H]2C)cc1F (relative stereo)", 7],
  ["CC(C)C(=O)N1c2ccccc2C(N(C(=O)c2ccccc2)c2ccc([N+](=O)[O-])cc2)CC1C (centres unmarked)", 1],
  ["COc1ccc(C(=O)N2c3c(C)cccc3C(Nc3ccccc3C)CC2C)cc1 (centres unmarked)", 1],
  ["Cc1ccc(C(=O)N2c3ccccc3[C@H](Nc3ccccc3)C[C@@H]2C)cc1F (relative stereo)", 1],
  ["C[C@H]1C[C@H](Nc2ccc(F)cc2)c2cc(F)ccc2N1C(=O)c1ccccc1C(F)(F)F (relative stereo)", 3],
  ["C[C@H]1C[C@H](Nc2ccc(F)cc2)c2cc(F)ccc2N1C(=O)c1ccc(F)c(F)c1 (relative stereo)", 152]
]}

INPUT: Give me measured Fold Induction Average, Z3V1 Assay 33 μM, please, for this compound: Cc1ccc(N[C@H]2C[C@H](C)N(C(=O)c3cccc(F)c3)c3ccc(C)cc32)cc1 (relative stereo)
OUTPUT: 1

INPUT: Give me measured Fold Induction Average, Z3V1 Assay 33 μM, please, for this compound: C[C@H]1C[C@H](Nc2ccccc2)c2ccccc2N1C(=O)c1ccc(C(C)(C)C)cc1 (relative stereo)
OUTPUT: 1

INPUT: Give me measured Fold Induction Average, Z3V1 Assay 33 μM, please, for this compound: C[C@H]1C[C@H](Nc2ccc(F)cc2)c2cc(F)ccc2N1C(=O)c1ccc(C(F)(F)F)c(F)c1 (relative stereo)
OUTPUT: 119
